Target: T1, biotinylated recombinant mouse IL-12Rβ2 (mouse, UniProt P97378 24-637, random biotinylated)
T1 construct: Recombinant protein produced in-house, biotinylated; also called mIL-12RB2; mouse IL-12RB2
T1 sequence: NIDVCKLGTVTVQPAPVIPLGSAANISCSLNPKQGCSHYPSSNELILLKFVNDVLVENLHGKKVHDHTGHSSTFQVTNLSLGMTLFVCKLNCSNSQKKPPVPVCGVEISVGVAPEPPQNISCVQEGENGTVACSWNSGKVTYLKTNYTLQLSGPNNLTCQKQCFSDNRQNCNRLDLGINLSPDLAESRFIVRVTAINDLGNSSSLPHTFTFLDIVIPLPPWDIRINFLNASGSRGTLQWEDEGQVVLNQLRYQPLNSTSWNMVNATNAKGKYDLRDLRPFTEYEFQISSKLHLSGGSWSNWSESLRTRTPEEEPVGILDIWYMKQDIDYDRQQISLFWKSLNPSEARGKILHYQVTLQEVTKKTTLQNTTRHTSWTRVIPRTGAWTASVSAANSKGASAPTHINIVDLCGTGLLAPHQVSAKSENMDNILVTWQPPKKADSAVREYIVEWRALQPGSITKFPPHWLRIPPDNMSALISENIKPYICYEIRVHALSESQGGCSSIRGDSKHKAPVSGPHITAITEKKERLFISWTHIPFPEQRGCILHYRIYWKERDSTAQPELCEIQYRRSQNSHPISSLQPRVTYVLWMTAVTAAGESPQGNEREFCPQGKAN
Assay: BLI (Octet), periplasmic extract on biotinylated mIL-12Rβ2 on streptavidin tips
Measured Response by item
Readout type: Response

anti-IL-12Rβ2 VHH clone 21061 (VHH, not shown: small tags and cut ends, tested as periplasmic extract; also called 3CRHM85) VHH: QVQLQESGGGLVQPGGSLRLSCAASRRTFSKHAMAWFRQAPGKEREFVAVVRWSGIITYYADSVKGRFTISRDDAKNTVYLQMDSLKPEDTAVYYCAAGDYRGNGYYVPGMYDYWGQGTQVTVSS
0.816
anti-IL-12Rβ2 VHH clone 21060 (VHH, not shown: small tags and cut ends, tested as periplasmic extract; also called 3CRHM73) VHH: QVQLQESGGGLVQAGGSLSLSCAASGSAFRLNFMGWYRQAPGKQRELVAAINSGGTEIYHDSVKGRFTISRDNADSTVWLQMNSLKPDDTAVYYCAADRGISWSKLAGGMDYWGKGTQVTVSS
0.944
anti-IL-12Rβ2 VHH clone 21065 (VHH, not shown: small tags and cut ends, tested as periplasmic extract; also called 3CRHM240) VHH: QVQLQESGGGSVQAGGSLRLSCAVSGRTVSDYAMGWFRQAPGKEREFVVAMSSSETTVYTNSVKGRITISRDNAKNAVYLQMNALKPEDTAVYYCSMGPITTFQGLARQNEYHYWGQGTQVTVSS
1.05
anti-IL-12Rβ2 VHH clone 21063 (VHH, not shown: small tags and cut ends, tested as periplasmic extract; also called 3CRHM133) VHH: QVQLQESGGGSVQAGGSLRLSCAVSGRPVSDYAMGWFRQAPGKEREFVAALSASDTTVYPNSVKGRITISRDNAKNAVDLQMNALKPEDTAVYYCAMGPIGTFQGLARQNEYHYWGQGTQVTVSS
0.97
anti-IL-12Rβ2 VHH clone 21064 (VHH, not shown: small tags and cut ends, tested as periplasmic extract; also called 3CRHM200) VHH: QVQLQESGGGLVQPGGSLRLSCAASGRTFSNYAMAWFRQAPGTEREFVAGLSGSGGDTAFYDNSVMGRFTISRDSAKNTMWLQINNLKPEDTAVYYCAAATHVVVSYGLVRRRGTYDYWGQGTQVTVSS
1.01
anti-IL-12Rβ2 VHH clone 21051 (VHH, not shown: small tags and cut ends, tested as periplasmic extract; also called 3CAHM40) VHH: QVQLQESGGGSVQAGGSLRLSCAVSGRTVSDYAMGWFRQAPGKEREFVAAMSSSETTVYPNSMKGRITISRDNAKNAVYLQLNALKPEDTAVYYCSMGPIATFQGLARQNEYHYWGQGTQVTVSS
0.809
anti-IL-12Rβ2 VHH clone 21057 (VHH, not shown: small tags and cut ends, tested as periplasmic extract; also called 3CRHM35) VHH: QVQLQESGGGLVQAGGSLRLSCAASGRTFSNYAMAWFRQAPGTEREFVAGLSGSGGDTAFYDNSVMGRFTISRDSAKNTMWLQINNLKPEDTAVYYCAAATHVVVNYGLVRRRGTYDYWGQGTQVTVSS
1.04

Values were extracted from patent US20260209362A1.
